Source: ChEMBL document CHEMBL4477199

conditions: 96 h
Description: Solubility in RPMI1640 culture medium at <30 uM incubated for 4 days by microscopic analysis
measure name: solubility

Before answering, review these 8 worked examples.
molecule="CC(O)(COc1ccc(OC(F)(F)F)cc1)C(=O)Nc1ccc([N+](=O)[O-])c(C(F)(F)F)c1 (stereo unspecified)" value_reported=Soluble
molecule="CC(O)(COc1ccc(C#N)c(F)c1)C(=O)Nc1ccc(C#N)cc1C(F)(F)F (stereo unspecified)" value_reported=Soluble
molecule="CC(O)(CS(=O)(=O)c1ccccc1C(F)(F)F)C(=O)Nc1ccc([N+](=O)[O-])cc1C(F)(F)F (stereo unspecified)" value_reported=Soluble
molecule="CC(O)(CSc1cccc(OC(F)(F)F)c1)C(=O)Nc1ccc([N+](=O)[O-])cc1C(F)(F)F (stereo unspecified)" value_reported=Soluble
molecule="O=C(Nc1ccc([N+](=O)[O-])c(C(F)(F)F)c1)C(O)(CSc1ccccc1C(F)(F)F)C(F)(F)F (stereo unspecified)" value_reported=Soluble
molecule="CC(O)(CS(=O)(=O)c1ccc(OC(F)(F)F)cc1)C(=O)Nc1ccc(C#N)c(C(F)(F)F)c1 (stereo unspecified)" value_reported=Soluble
molecule="CC(O)(CS(=O)(=O)c1ccc(C(F)(F)F)cc1)C(=O)Nc1ccc(C#N)cc1C(F)(F)F (stereo unspecified)" value_reported=Soluble
molecule="CC(O)(COc1ccc(OC(F)(F)F)cc1)C(=O)Nc1ccc(C#N)c(C(F)(F)F)c1 (stereo unspecified)" value_reported=Soluble

Query :: Sample CC(O)(CS(=O)(=O)c1ccc(F)c(F)c1)C(=O)Nc1ccc([N+](=O)[O-])cc1C(F)(F)F (stereo unspecified) — what was its solubility?
Result :: Soluble

Query :: Sample CC(O)(CS(=O)(=O)c1ccccc1C(F)(F)F)C(=O)Nc1ccc(C#N)cc1C(F)(F)F (stereo unspecified) — what was its solubility?
Result :: Soluble

Query :: Sample CC(O)(COc1cccc(OC(F)(F)F)c1)C(=O)Nc1ccc(C(F)(F)F)cc1 (stereo unspecified) — what was its solubility?
Result :: Soluble

---

tested on: CWR22R; test: Potency index, ratio of bicalutamide IC50 to compound IC50 for human 22Rv1 cells; assay type: functional
measure name: Ratio IC50

molecule=C[C@](O)(CS(=O)(=O)c1ccc(C(F)(F)F)cc1)C(=O)Nc1ccc(C#N)c(C(F)(F)F)c1 value_reported=<=2
molecule="CC(O)(CS(=O)(=O)c1ccc(C(F)(F)F)cc1)C(=O)Nc1ccc([N+](=O)[O-])c(C(F)(F)F)c1 (centres undefined)" value_reported=<=2
molecule="CC(O)(CS(=O)(=O)c1cccc(C(F)(F)F)c1)C(=O)Nc1ccc([N+](=O)[O-])c(C(F)(F)F)c1 (centres undefined)" value_reported=<=2
molecule="CC(O)(CS(=O)(=O)c1ccc(C(F)(F)F)cc1)C(=O)Nc1ccc(C#N)c(C(F)(F)F)c1 (centres undefined)" value_reported=2

---

system: HepG2; assay: Cytotoxicity against human HepG2 cells assessed as reduction in cell viability after 72 hrs by MTT assay; assay type: functional, cell-based; details: HepG2, 72 h
measure name: AC50
Please report the result as a number followed by the unit.

Query :: Sample CC(O)(COc1ccc(C#N)cc1C(F)(F)F)C(=O)Nc1ccc([N+](=O)[O-])c(C(F)(F)F)c1 (stereo not given) — what was its AC50?
Result :: 20.2 µM

---

biological target: Androgen receptor (Rattus norvegicus); assay: Antagonist activity at rat androgen receptor fused with DNA-binding domain of GAL4 expressed in AR-UAS-bla GripTite 293 cells assessed as inhibition of R1881-induced receptor activation preincubated for 30 mins followed by R1881 addition measured after 16 to 24 hrs by betalactamase reporter gene assay; format: cell-based
measure name: inhibition

compound=C[C@](O)(CS(=O)(=O)c1ccc(OC(F)(F)F)cc1)C(=O)Nc1ccc(C#N)c(C(F)(F)F)c1 value_reported="Dose-dependent effect"
compound="CC(O)(COc1ccc(C#N)cc1C(F)(F)F)C(=O)Nc1ccc([N+](=O)[O-])c(C(F)(F)F)c1 (centres undefined)" value_reported="Dose-dependent effect"
compound=C[C@](O)(CSc1ccc(C(F)(F)F)cc1)C(=O)Nc1ccc(C#N)c(C(F)(F)F)c1 value_reported="Dose-dependent effect"
compound="CC(O)(CSc1ccccc1C(F)(F)F)C(=O)Nc1ccc([N+](=O)[O-])cc1C(F)(F)F (centres undefined)" value_reported="Dose-dependent effect"

---

system: DU-145; experiment: Potency index, ratio of bicalutamide IC50 to compound IC50 for human DU145 cells; type: functional
measure name: Ratio IC50

compound=C[C@](O)(CS(=O)(=O)c1ccc(C(F)(F)F)cc1)C(=O)Nc1ccc(C#N)c(C(F)(F)F)c1 value_reported=<=2
compound="CC(O)(CS(=O)(=O)c1ccc(C(F)(F)F)cc1)C(=O)Nc1ccc([N+](=O)[O-])c(C(F)(F)F)c1 (centres undefined)" value_reported=<=2
compound="CC(O)(CS(=O)(=O)c1cccc(C(F)(F)F)c1)C(=O)Nc1ccc([N+](=O)[O-])c(C(F)(F)F)c1 (centres undefined)" value_reported=<=2
compound="CC(O)(CS(=O)(=O)c1ccc(C(F)(F)F)cc1)C(=O)Nc1ccc(C#N)c(C(F)(F)F)c1 (centres undefined)" value_reported=2

---

assay: Apparent permeability from basolateral to apical side in human Caco2 cells at 10 uM incubated for 120 mins by LC-MS/MS analysis; settings: Caco-2
# Papp B→A at 2 h, 10 µM per entry
Report only the number, with the unit ×10⁻⁶ cm/s understood.

Before answering, review these 2 worked examples.
molecule="CC(O)(COc1ccc(C(F)(F)F)cc1)C(=O)Nc1ccc(C#N)c(C(F)(F)F)c1 (stereo not given)" value_reported=4.8
molecule="CC(O)(CSc1cccc(C(F)(F)F)c1)C(=O)Nc1ccc([N+](=O)[O-])c(C(F)(F)F)c1 (stereo not given)" value_reported=4.27

Query :: Sample `C[C@](O)(COc1ccc(C#N)cc1)C(=O)Nc1ccc(C#N)c(C(F)(F)F)c1` — what was its Papp B→A at 2 h, 10 µM?
Result :: 26.7

Query :: Sample CC(O)(CSc1cccc(C(F)(F)F)c1)C(=O)Nc1ccc(C#N)c(C(F)(F)F)c1 (stereo not given) — what was its Papp B→A at 2 h, 10 µM?
Result :: 4.73

Query :: Sample CC(O)(CSc1ccccc1C(F)(F)F)C(=O)Nc1ccc([N+](=O)[O-])c(C(F)(F)F)c1 (stereo not given) — what was its Papp B→A at 2 h, 10 µM?
Result :: 2.9

---

# IC50 per entry
molecular target: Androgen receptor (Rattus norvegicus, UniProt P15207); assay: Antagonist activity at rat androgen receptor fused with DNA-binding domain of GAL4 expressed in AR-UAS-bla GripTite 293 cells assessed as inhibition of R1881-induced receptor activation preincubated for 30 mins followed by R1881 addition measured after 16 to 24 hrs by betalactamase reporter gene assay
Sequence (P15207 whole entry S389L, the tested form may be a part): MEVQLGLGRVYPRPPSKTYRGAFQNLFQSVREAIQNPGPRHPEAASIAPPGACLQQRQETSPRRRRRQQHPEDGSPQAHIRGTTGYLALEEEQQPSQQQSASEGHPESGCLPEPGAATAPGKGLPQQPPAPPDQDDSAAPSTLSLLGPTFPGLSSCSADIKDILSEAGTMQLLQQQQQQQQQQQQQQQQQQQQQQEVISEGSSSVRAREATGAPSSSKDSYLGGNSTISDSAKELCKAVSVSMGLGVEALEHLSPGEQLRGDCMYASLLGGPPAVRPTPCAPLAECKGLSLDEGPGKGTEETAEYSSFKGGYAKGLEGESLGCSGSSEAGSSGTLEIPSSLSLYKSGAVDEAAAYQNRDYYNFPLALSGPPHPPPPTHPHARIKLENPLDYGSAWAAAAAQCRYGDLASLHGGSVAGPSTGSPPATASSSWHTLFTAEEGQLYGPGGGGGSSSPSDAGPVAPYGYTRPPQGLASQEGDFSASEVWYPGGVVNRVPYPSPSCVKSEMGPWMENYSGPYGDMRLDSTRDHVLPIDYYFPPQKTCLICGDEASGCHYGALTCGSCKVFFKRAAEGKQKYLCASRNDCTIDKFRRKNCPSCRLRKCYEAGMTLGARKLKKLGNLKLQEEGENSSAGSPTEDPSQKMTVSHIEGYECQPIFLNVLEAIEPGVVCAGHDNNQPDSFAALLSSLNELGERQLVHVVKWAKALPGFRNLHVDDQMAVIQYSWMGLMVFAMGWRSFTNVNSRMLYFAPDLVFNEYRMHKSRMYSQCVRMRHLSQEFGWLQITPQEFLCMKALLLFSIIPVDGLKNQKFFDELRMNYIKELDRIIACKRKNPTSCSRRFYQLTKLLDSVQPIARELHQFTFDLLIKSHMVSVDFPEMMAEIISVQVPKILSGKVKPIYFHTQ
Report only the number, with the unit nM understood.

Before answering, review these 3 worked examples.
compound=C[C@](O)(COc1ccc(C#N)cc1)C(=O)Nc1ccc(C#N)c(C(F)(F)F)c1 value_reported=36.4
compound="CC(O)(COc1ccccc1OC(F)(F)F)C(=O)Nc1ccc([N+](=O)[O-])c(C(F)(F)F)c1 (centres undefined)" value_reported=198
compound=CC1(C)C(=O)N(c2ccc(C(F)(F)F)cc2)C(=O)N1c1ccc(C#N)cc1C(F)(F)F value_reported=402

With those in mind, consider the next compound.
Query :: Sample CC(O)(COc1ccccc1C(F)(F)F)C(=O)Nc1ccc([N+](=O)[O-])c(C(F)(F)F)c1 (centres undefined) — what was its IC50?
Result :: 183

---

target: Androgen receptor (Rattus norvegicus, UniProt P15207); assay: Antagonist activity at rat androgen receptor fused with DNA-binding domain of GAL4 expressed in AR-UAS-bla GripTite 293 cells assessed as inhibition of R1881-induced receptor activation preincubated for 30 mins followed by R1881 addition measured after 16 to 24 hrs by betalactamase reporter gene assay
# IC50 per entry
Report only the number, with the unit nM understood.

Before answering, review these 6 worked examples.
compound="CC(O)(COc1cccc(OC(F)(F)F)c1)C(=O)Nc1ccc([N+](=O)[O-])c(C(F)(F)F)c1 (stereo unspecified)" value_reported=407
compound=C[C@](O)(CS(=O)(=O)c1ccc(C(F)(F)F)cc1)C(=O)Nc1ccc(C#N)c(C(F)(F)F)c1 value_reported=775
compound="CC(O)(COc1ccc(C#N)cc1C(F)(F)F)C(=O)Nc1ccc([N+](=O)[O-])c(C(F)(F)F)c1 (stereo unspecified)" value_reported=72.2
compound=CC1(C)C(=O)N(c2ccc(C(F)(F)F)cc2)C(=O)N1c1ccc([N+](=O)[O-])cc1C(F)(F)F value_reported=265
compound=CC1(C)C(=O)N(c2ccc(C(F)(F)F)cc2)C(=O)N1c1ccc([N+](=O)[O-])c(C(F)(F)F)c1 value_reported=80.3
compound="CC(O)(CS(=O)(=O)c1cccc(C(F)(F)F)c1)C(=O)Nc1ccc([N+](=O)[O-])c(C(F)(F)F)c1 (stereo unspecified)" value_reported=1070

Query :: Sample CC(O)(COc1ccc(C#N)cc1C(F)(F)F)C(=O)Nc1ccc(C#N)cc1C(F)(F)F (stereo unspecified) — what was its IC50?
Result :: 736

Query :: Sample `C[C@](O)(CS(=O)(=O)c1ccc(OC(F)(F)F)cc1)C(=O)Nc1ccc(C#N)c(C(F)(F)F)c1` — what was its IC50?
Result :: 777

Query :: Sample O=C(Nc1ccc([N+](=O)[O-])c(C(F)(F)F)c1)C(O)(CSc1ccccc1C(F)(F)F)C(F)(F)F (stereo unspecified) — what was its IC50?
Result :: 245

Query :: Sample CC(O)(CSc1ccccc1C(F)(F)F)C(=O)Nc1ccc([N+](=O)[O-])c(C(F)(F)F)c1 (stereo unspecified) — what was its IC50?
Result :: 280

Query :: Sample CC(O)(CS(=O)(=O)c1ccccc1C(F)(F)F)C(=O)Nc1ccc([N+](=O)[O-])c(C(F)(F)F)c1 (stereo unspecified) — what was its IC50?
Result :: 811
